test: CT900 plasma pharmacokinetics, noncompartmental analysis; type: in vivo, human; settings: human, plasma, iv, 12 mg/m2, C max, 12 mg/m^2 i.v., Cycle 1 Day 1; Mean, N 5
Readout: Cmax (ng/mL)

1) C#CCN(c1ccc(C(=O)N[C@@H](CCC(=O)N[C@H](CCC(=O)O)C(=O)O)C(=O)O)cc1)[C@H]1CCc2cc3nc(CO)[nH]c(=O)c3cc21 | 5130

====

test: CT900 plasma pharmacokinetics, noncompartmental analysis; type: in vivo, human; conditions: human, plasma, iv, 12 mg/m2, C max, 12 mg/m^2 i.v., Cycle 1 Day 1; Geometric Mean, N 5
Readout: Cmax (ng/mL)

1. C#CCN(c1ccc(C(=O)N[C@@H](CCC(=O)N[C@H](CCC(=O)O)C(=O)O)C(=O)O)cc1)[C@H]1CCc2cc3nc(CO)[nH]c(=O)c3cc21 | 5100
